target: PD-1/PD-L1 PPI (Homo sapiens, UniProt Q9NZQ7); experiment: PDL1/PD1 Binding Assay; details: PDL1-6×His 0.3 nM, PD1-Fc-Avi-Biotin 2.5 nM, Acceptor/Donor beads, Envision reader
Sequence (Q9NZQ7 19-238 limits assumed): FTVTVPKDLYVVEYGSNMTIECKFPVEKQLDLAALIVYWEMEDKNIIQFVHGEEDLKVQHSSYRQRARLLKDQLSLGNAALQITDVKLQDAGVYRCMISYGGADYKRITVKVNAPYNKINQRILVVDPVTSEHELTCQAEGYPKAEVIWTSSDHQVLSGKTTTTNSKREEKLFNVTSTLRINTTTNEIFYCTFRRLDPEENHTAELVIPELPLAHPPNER
metric: IC50

| compound | IC50 |
| --- | --- |
| COc1nc(-c2cccc(-c3cccc(NC(=O)c4cn(C)c(=O)n(C)c4=O)c3Cl)c2Cl)cc2c1C(N1CCN3C(=O)CC[C@H]3C1)CC2 (stereo partly drawn) | ≤ 10 nM |

Field: IC50. Fill in for each record below.
1. COCCOc1nc(-c2cccc(-c3cccc(NC(=O)c4cn(C)c(=O)n(C)c4=O)c3C)c2Cl)cc2c1[C@@H](NC[C@@H]1CCC(=O)N1)CC2 (single isomer, unassigned)
2. COc1nc(-c2cccc(-c3cccc(NC(=O)c4cn(C)c(=O)n(C)c4=O)c3C)c2Cl)cc2c1[C@H](N[C@@H]1CCOC[C@@H]1O)CC2 (single isomer, unassigned)
3. COc1nc(-c2cccc(-c3cccc(NC(=O)c4nn(C)c(=O)n(C)c4=O)c3C)c2C)cc2c1[C@@H](N[C@@H]1COC[C@@H]1O)CC2 (single isomer, unassigned)
4. COc1nc(-c2cccc(-c3cccc(NC(=O)c4cn(C)c(=O)n(C)c4=O)c3Cl)c2Cl)cc2c1C(NCCO)CC2 (stereo not drawn)
5. COc1nc(-c2cccc(-c3cccc(NC(=O)c4cn(C)c(=O)n(C)c4=O)c3Cl)c2Cl)cc2c1C(N)C(O)C2 (stereo not drawn)

≤ 10 nM
≤ 10 nM
≤ 10 nM
≤ 10 nM
≤ 10 nM

###

Record form. Attribute: IC50. Fill in for each entry.
molecular target: PD-1/PD-L1 PPI (Homo sapiens, UniProt Q9NZQ7); assay: PDL1/PD1 Binding Assay; settings: PDL1-6×His 0.3 nM, PD1-Fc-Avi-Biotin 2.5 nM, Acceptor/Donor beads, Envision reader

Below: 2 compounds and their reported IC50.
| compound | testValue |
| --- | --- |
| COc1nc(-c2cccc(-c3cccc(NC(=O)c4ccnn(C)c4=O)c3Cl)c2Cl)cc2c1[C@@H](NC[C@@H]1CCC(=O)N1)CO2 [Compound A-44] | ≤ 0.01 µM |
| COc1nc(-c2cccc(-c3ccc(F)c(NC(=O)c4cn(C)c(=O)n(C)c4=O)c3C)c2Cl)cc2c1[C@@H](NC[C@@H]1CCC(=O)N1)CC2 [Compound A-59] | ≤ 0.01 µM |

Consider the compound COc1nc(-c2cccc(-c3cc(F)cc(NC(=O)c4nn(C)c(=O)n(C)c4=O)c3C)c2Cl)cc2c1[C@@H](NC[C@@H]1CCC(=O)N1)CC2 [Compound A-62] and give its recorded IC50. ≤ 0.01 µM

###

molecular target: PD-1/PD-L1 PPI (Homo sapiens); experiment: PDL1/PD1 Binding Assay; details: PDL1-6×His 0.3 nM, PD1-Fc-Avi-Biotin 2.5 nM, Acceptor/Donor beads, Envision reader
pIC50: −log10 of the molar value.
metric: pIC50

| compound | testValue |
| --- | --- |
| COc1nc(-c2cccc(-c3cccc(NC(=O)c4cn(C)c(=O)n(C)c4=O)c3C)c2C)cc2c1[C@H](N[C@@H]1CCOC[C@@H]1O)CC2 (single isomer, unassigned) | ≥ 8.00 |
| COc1nc(-c2cccc(-c3cccc(NC(=O)c4ccnn(C)c4=O)c3C)c2Cl)cc2c1[C@@H](NC[C@@H]1CCC(=O)N1)CO2 | ≥ 8.00 |

Consider the compound COc1nc(-c2cccc(-c3cc(F)cc(NC(=O)c4nn(C)c(=O)n(C)c4=O)c3C)c2C)cc2c1[C@@H](N[C@@H]1CCOC[C@@H]1O)CC2 (single isomer, unassigned) and give its recorded pIC50. ≥ 8.00

###

biological target: PD-1/PD-L1 PPI (Homo sapiens, UniProt Q9NZQ7); assay: PDL1/PD1 Binding Assay; conditions: PDL1-6×His 0.3 nM, PD1-Fc-Avi-Biotin 2.5 nM, Acceptor/Donor beads, Envision reader
Record form. Attribute: IC50. Fill in for each entry.

Below: 5 compounds and their reported IC50.
| compound | testValue |
| --- | --- |
| COc1nc(-c2cccc(-c3cccc(NC(=O)c4cn(C)c(=O)n(C)c4=O)c3C)c2Cl)cc2c1C(NC[C@@H]1CCC(=O)N1)CC2C (stereo partly drawn) | ≤ 10 nM |
| COc1nc(-c2cc(F)cc(-c3cc(F)cc(NC(=O)c4cn(C)c(=O)n(C)c4=O)c3C)c2Cl)cc2c1[C@@H](NC[C@@H]1CCC(=O)N1)CC2 | ≤ 10 nM |
| COc1nc(-c2cccc(-c3cccc(NC(=O)c4ccnn(C)c4=O)c3C)c2Cl)cc2c1[C@@H](NC[C@@H]1CCC(=O)N1)CC2 | ≤ 10 nM |
| COc1nc(-c2cccc(-c3cc(F)cc(NC(=O)c4cn(C)c(=O)n(C)c4=O)c3Cl)c2Cl)cc2c1[C@@H](NC[C@@H]1CCC(=O)N1)CC2 | ≤ 10 nM |
| COc1nc(-c2cccc(-c3cccc(NC(=O)c4cn(C)c(=O)n(C)c4=O)c3C)c2Cl)cc2c1[C@@H](NC[C@H]1CCC(=O)N1)CC2 (single isomer, unassigned) | 10 to 100 nM |

Now for the compound whose IC50 we want.
Consider the compound COc1nc(-c2cccc(-c3cccc(NC(=O)c4cn(C)c(=O)n(C)c4=O)c3C)c2Cl)cc2c1C(NC1COC1)CC2 (stereo not drawn) and give its recorded IC50. ≤ 10 nM

###

target: PD-1/PD-L1 PPI (Homo sapiens); assay: PDL1/PD1 Binding Assay; details: PDL1-6×His 0.3 nM, PD1-Fc-Avi-Biotin 2.5 nM, Acceptor/Donor beads, Envision reader
pIC50: −log10 of the molar value.
Record form. Attribute: pIC50. Fill in for each entry.

Below: 2 compounds and their reported pIC50.
| compound | metric | testValue |
| --- | --- | --- |
| COc1nc(-c2cccc(-c3cccc(NC(=O)c4cn(C)c(=O)n(C)c4=O)c3Cl)c2Cl)cc2c1C(N1CCN3C(=O)CC[C@@H]3C1)CC2 (stereo partly drawn) [Compound A-118] | pIC50 | ≥ 8.00 |
| COc1nc(-c2cccc(-c3cccc(NC(=O)c4cn(C)c(=O)n(C)c4=O)c3Cl)c2Cl)cc2c1[C@H](N1CC(OC)C1)CC2 (single isomer, unassigned) [Compound A-25] | pIC50 | ≥ 8.00 |

Now for the compound whose pIC50 we want.
Consider the compound CCOC(=O)C1CN([C@H]2CCc3cc(-c4cccc(-c5cccc(NC(=O)c6ccnn(C)c6=O)c5C)c4Cl)nc(OC)c32)C1 (single isomer, unassigned) [Compound A-88] and give its recorded pIC50. ≥ 8.00

###

molecular target: PD-1/PD-L1 PPI (Homo sapiens, UniProt Q9NZQ7); assay: PDL1/PD1 Binding Assay; conditions: PDL1-6×His 0.3 nM, PD1-Fc-Avi-Biotin 2.5 nM, Acceptor/Donor beads, Envision reader
metric: IC50

| compound | testSystem | IC50 |
| --- | --- | --- |
| COc1nc(-c2cccc(-c3cccc(NC(=O)c4cn(C)c(=O)n(C)c4=O)c3Cl)c2C)cc2c1[C@H](NC[C@@H]1CCC(=O)N1)CC2 | PD-1/PD-L1 PPI (Homo sapiens, UniProt Q9NZQ7) | ≤ 10 nM |

Field: IC50. Fill in for each record below.
1. COc1nc(-c2cccc(-c3cccc(NC(=O)c4cn(C)c(=O)n(C)c4=O)c3C)c2C)cc2c1[C@@H](N[C@@H]1COC[C@H]1O)CC2 (single isomer, unassigned)
2. COc1nc(-c2cccc(-c3cccc(NC(=O)c4cn(C)c(=O)n(C)c4=O)c3Cl)c2Cl)cc2c1[C@@H](N1CC3(CNC(=O)C3)C1)CC2 (single isomer, unassigned)
3. COc1nc(-c2cccc(-c3cccc(NC(=O)c4cn(C)c(=O)n(C)c4=O)c3C)c2Cl)cc2c1C(NC[C@@H]1CCC(=O)N1)C(O)C2 (single isomer, unassigned) [Compound A-125]
4. COc1nc(-c2cccc(-c3cccc(NC(=O)c4cn(C)c(=O)n(C)c4=O)c3C)c2F)cc2c1[C@H](NC[C@@H]1CCC(=O)N1)CC2
5. COc1nc(-c2cccc(-c3cc(Cl)cc(NC(=O)c4cn(C)c(=O)n(C)c4=O)c3C)c2Cl)cc2c1[C@@H](NC[C@@H]1CCC(=O)N1)CC2
6. COc1nc(-c2cccc(-c3cccc(NC(=O)c4cn(C)c(=O)n(C)c4=O)c3F)c2F)cc2c1[C@H](N[C@@H]1CCOC[C@@H]1O)CC2 (single isomer, unassigned)
7. COc1nc(-c2cccc(-c3cccc(NC(=O)c4cn(C)c(=O)n(C)c4=O)c3C)c2Cl)cc2c1[C@@H](N(C[C@@H]1CCC(=O)N1)C(=O)OCc1oc(=O)oc1C)CC2
8. COc1nc(-c2cccc(-c3cccc(NC(=O)c4cn(C)c(=O)n(C)c4=O)c3C)c2Cl)cc2c1C(NC[C@@H]1CCC(=O)N1)C(O)C2 (single isomer, unassigned) [Compound A-128]

10 to 100 nM
≤ 10 nM
≤ 10 nM
≤ 10 nM
≤ 10 nM
≤ 10 nM
≤ 10 nM
≤ 10 nM

Please look at COc1nc(-c2cccc(-c3cccc(NC(=O)c4cn(C)c(=O)n(C)c4=O)c3C)c2Cl)cc2c1C(NC[C@@H]1CCC(=O)N1)C(F)C2 (single isomer, unassigned) [Compound K-1a] and tell me its recorded IC50 on PD-1/PD-L1 PPI (Homo sapiens, UniProt Q9NZQ7). ≤ 10 nM
